As shown below, each of these binders has a reported Percentage reduction of GPC3 on cell surface (%), Huh7 cells, 2 h value.
molecular target: human GPC3 (Glypican-3) (human, UniProt P51654 25-580); test: cell-based or functional assay
Sequence (P51654 25-580, form in doubt): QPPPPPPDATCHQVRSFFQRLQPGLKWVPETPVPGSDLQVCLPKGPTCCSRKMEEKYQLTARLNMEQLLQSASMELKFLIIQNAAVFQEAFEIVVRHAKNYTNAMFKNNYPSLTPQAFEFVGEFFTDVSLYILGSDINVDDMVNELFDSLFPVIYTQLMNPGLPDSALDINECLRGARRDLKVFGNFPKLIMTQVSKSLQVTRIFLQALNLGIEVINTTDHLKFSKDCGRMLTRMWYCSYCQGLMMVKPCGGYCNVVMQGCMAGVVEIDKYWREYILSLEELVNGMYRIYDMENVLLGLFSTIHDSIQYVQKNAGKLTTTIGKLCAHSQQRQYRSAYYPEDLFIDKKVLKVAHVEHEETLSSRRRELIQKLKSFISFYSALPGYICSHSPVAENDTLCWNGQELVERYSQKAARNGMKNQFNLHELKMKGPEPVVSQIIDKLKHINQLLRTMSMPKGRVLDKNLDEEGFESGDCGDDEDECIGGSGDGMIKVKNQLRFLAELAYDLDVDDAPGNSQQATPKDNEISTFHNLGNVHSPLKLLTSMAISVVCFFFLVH
Could you give me the number in %? Just the number is fine.

Some solved entries appear below for comparison.
Hu 52H5D3B8-8-mcc-AAN-Exatecan (ADC-2) (antibody, human IgG1, kappa, DAR 8.0, V domains shown, mcc-AAN-Exatecan on cysteine thiols freed by reduction of interchain disulfide bonds; DAR 8.0 for the whole antibody; positions not given, also called Hu 52H5D3B8-8-MCC-AAN-Exa (ADC-2)) VH: EVQLVQSGAEVKKPGASVKVSCKASGYTFTDYEMHWVRQAPGQGLEWMGAIHPGSGGTAYNQKFKGRVTMTADKSISTAYMELSRLRSDDTAVYYCTRFYSYAYWGQGTLVTVSS VL: DVVMTQTPLSLSVTPGQPASISCRSSQSLVHSNGNTYLQWYLQKPGQSPQLLIYKVSNRFSGVPDRFSGSGSGTDFTLKISRVEAEDVGVYFCSQSIHVPYTFGGGTKVEIKR : 52.2
Hu 52H5D3B8-8-mc-AAQ-Exatecan (ADC-3) (antibody, human IgG1, kappa, DAR 8.0, V domains shown, mc-AAQ-Exatecan on cysteine thiols freed by reduction of interchain disulfide bonds; DAR 8.0 for the whole antibody; positions not given, also called Hu 52H5D3B8-8-MC-AAQ-Exa (ADC-3)) VH: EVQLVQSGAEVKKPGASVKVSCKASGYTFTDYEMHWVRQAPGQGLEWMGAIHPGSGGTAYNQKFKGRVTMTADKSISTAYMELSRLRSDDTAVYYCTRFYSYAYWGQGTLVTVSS VL: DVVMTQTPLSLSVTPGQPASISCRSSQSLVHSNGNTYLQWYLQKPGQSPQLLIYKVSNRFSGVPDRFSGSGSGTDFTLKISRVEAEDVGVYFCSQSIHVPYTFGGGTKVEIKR : 50.1

Then there is this binder:
-- ask Would you mind telling me what Percentage reduction of GPC3 on cell surface (%), Huh7 cells, 2 h value was observed for Hu 52H5D3B8-8-mcc-AAQ-Exatecan (ADC-4) (antibody, human IgG1, kappa, DAR 8.0, V domains shown, mcc-AAQ-Exatecan on cysteine thiols freed by reduction of interchain disulfide bonds; DAR 8.0 for the whole antibody; positions not given, also called Hu 52H5D3B8-8-MCC-AAQ-Exa (ADC-4)) VH: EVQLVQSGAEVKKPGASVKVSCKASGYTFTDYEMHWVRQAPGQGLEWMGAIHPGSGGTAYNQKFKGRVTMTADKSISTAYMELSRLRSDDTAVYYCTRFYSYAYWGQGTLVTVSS VL: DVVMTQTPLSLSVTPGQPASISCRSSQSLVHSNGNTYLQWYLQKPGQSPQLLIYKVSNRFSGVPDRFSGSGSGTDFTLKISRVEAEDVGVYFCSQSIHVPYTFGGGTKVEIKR ?
-- reply 50.2
